What % inhibition 10 µg/ml, N = 1 (HUVEC proliferation on coated DLL4) was measured for each of the following?
# assay.system: DLL4 extracellular domain (R&D systems, catalog #1506-D4/CF) (UniProt Q9NR61 27-529, limits assumed)
# Sequence (Q9NR61 27-529 limits assumed): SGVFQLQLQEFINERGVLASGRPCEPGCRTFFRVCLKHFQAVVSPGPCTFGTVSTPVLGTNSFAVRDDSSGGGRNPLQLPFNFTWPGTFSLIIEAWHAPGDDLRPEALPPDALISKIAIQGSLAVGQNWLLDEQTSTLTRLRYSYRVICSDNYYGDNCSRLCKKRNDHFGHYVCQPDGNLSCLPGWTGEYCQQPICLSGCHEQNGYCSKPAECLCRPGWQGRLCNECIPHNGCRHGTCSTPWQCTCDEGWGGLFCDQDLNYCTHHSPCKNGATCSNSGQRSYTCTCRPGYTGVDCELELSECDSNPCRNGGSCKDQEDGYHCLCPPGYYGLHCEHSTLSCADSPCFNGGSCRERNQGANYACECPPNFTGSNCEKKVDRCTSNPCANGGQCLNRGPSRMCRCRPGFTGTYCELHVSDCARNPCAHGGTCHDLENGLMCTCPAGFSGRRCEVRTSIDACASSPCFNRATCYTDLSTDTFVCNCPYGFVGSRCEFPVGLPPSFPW
# procedure.summary: cell-based or functional assay
Answers are plain numbers, in %.

1. 4B4 (antibody, IgG4, V domains shown, Fully human; used for IgG4 rows and where no isotype is printed; also called 4B4 IgG4; 4B4.1) VH: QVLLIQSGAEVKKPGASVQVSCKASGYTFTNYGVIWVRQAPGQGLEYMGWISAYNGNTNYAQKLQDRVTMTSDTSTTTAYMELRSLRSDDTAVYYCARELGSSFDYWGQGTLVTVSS VL: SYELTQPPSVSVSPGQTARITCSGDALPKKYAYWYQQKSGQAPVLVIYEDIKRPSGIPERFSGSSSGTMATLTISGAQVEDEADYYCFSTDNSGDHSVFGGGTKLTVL
102
2. 4B3 (antibody, IgG4, V domains shown, Fully human; also used where no isotype is printed) VH: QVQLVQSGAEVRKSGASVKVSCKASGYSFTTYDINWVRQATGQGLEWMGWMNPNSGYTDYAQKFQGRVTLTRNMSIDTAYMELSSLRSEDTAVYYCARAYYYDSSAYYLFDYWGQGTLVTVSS VL: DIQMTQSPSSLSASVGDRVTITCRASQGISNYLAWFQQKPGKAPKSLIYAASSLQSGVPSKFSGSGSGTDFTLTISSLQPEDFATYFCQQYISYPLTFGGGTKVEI
38
3. 9G8 (antibody, IgG4, V domains shown, Fully human; used for IgG4 rows and where no isotype is printed; also called 9G8 IgG4) VH: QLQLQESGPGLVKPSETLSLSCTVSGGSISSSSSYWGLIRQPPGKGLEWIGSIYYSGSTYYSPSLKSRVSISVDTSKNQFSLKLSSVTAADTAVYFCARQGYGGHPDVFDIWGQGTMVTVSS VL: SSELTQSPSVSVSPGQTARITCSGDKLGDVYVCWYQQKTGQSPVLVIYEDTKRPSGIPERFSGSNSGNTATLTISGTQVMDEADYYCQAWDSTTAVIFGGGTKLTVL
72

Now look at this entry.
-- ask Given 12A1 (antibody, IgG4, V domains shown, Fully human; also used where no isotype is printed) VH: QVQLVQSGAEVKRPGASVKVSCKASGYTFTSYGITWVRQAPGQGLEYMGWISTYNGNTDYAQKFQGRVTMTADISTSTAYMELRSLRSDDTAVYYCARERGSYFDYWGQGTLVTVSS VL: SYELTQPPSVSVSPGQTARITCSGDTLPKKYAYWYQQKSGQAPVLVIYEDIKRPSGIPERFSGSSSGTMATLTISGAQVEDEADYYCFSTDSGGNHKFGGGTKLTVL , state its recorded % inhibition 10 µg/ml, N = 1 (HUVEC proliferation on coated DLL4).
-- reply 62
